Value source: patent US20060067886A1

- Protocol Notes: Biodistribution of radiometal-DOTA-BBN conjugates in CF1 normal mice
- Experimental Conditions: 1 hour post-injection
# reported Avg % ID, Kidney; entries follow

Molecule | Avg % ID, Kidney [% ID]
CSCC[C@H](NC(=O)[C@H](CC(C)C)NC(=O)[C@H](Cc1cnc[nH]1)NC(=O)CNC(=O)[C@@H](NC(=O)[C@H](C)NC(=O)[C@H](Cc1c[nH]c2ccccc12)NC(=O)[C@H](CCC(N)=O)NC(=O)CCCCCCCNC(=O)CN1CCN(CC(=O)O)CCN(CC(=O)O)CCN(CC(=O)O)CC1)C(C)C)C(N)=O [149Pm-DOTA-8-Aoc-BBN[7-14]NH2] | 1.55
CSCC[C@H](NC(=O)[C@H](CC(C)C)NC(=O)[C@H](Cc1cnc[nH]1)NC(=O)CNC(=O)[C@@H](NC(=O)[C@H](C)NC(=O)[C@H](Cc1c[nH]c2ccccc12)NC(=O)[C@H](CCC(N)=O)NC(=O)CCCCCCCNC(=O)CN1CCN(CC(=O)O)CCN(CC(=O)O)CCN(CC(=O)O)CC1)C(C)C)C(N)=O [177Lu-DOTA-8-Aoc-BBN[7-14]NH2] [metal not drawn] | 1.62
CSCC[C@H](NC(=O)[C@H](CC(C)C)NC(=O)[C@H](Cc1cnc[nH]1)NC(=O)CNC(=O)[C@@H](NC(=O)[C@H](C)NC(=O)[C@H](Cc1c[nH]c2ccccc12)NC(=O)[C@H](CCC(N)=O)NC(=O)CCNC(=O)CN1CCN(CC(=O)O)CCN(CC(=O)O)CCN(CC(=O)O)CC1)C(C)C)C(N)=O [177Lu-DOTA-β-Ala-BBN[7-14]NH2] [metal not drawn] | 0.63
